- method_notes: Tmax in Balb/c mouse at 100 mg/kg, po measured over 24 hrs by LC/TSQ quantum access mass spectrometric method
- Type: ADME, organism-based
- condition_notes: in vivo
quantity_name: Tmax (h)

sample_smiles=CC(=O)NC[C@@H]1OC(=O)N2c3cc(F)c(C4=CCN(C(=O)CO)CC4)cc3OC[C@@H]12 quantity_name=Tmax observed_result=2

###

- method_notes: AUC (0 to infinity) in Balb/c mouse at 100 mg/kg, po measured over 24 hrs by LC/TSQ quantum access mass spectrometric method
- Type: ADME, organism-based
- Set-up: dose 100 mg/kg, route oral, time infinity
- condition_notes: in vivo
quantity_name: AUC(0-inf)

sample_smiles=CC(=O)NC[C@@H]1OC(=O)N2c3cc(F)c(C4=CCN(C(=O)CO)CC4)cc3OC[C@@H]12 quantity_name=AUC(0-inf) observed_result="122 µg·h/mL"

###

- method_notes: Cmax in Balb/c mouse at 100 mg/kg, po measured over 24 hrs by LC/TSQ quantum access mass spectrometric method
- Format: ADME, organism-based
- Design: dose 100 mg/kg, route oral
- condition_notes: in vivo
quantity_name: Cmax (ng/mL)

sample_smiles=CC(=O)NC[C@@H]1OC(=O)N2c3cc(F)c(C4=CCN(C(=O)CO)CC4)cc3OC[C@@H]12 endpoint_unit=ng/mL observed_result=30000

###

- System: Mycobacterium tuberculosis
- method_notes: Antitubercular activity against Mycobacterium tuberculosis H37Rv after 7 days by microplate alamar blue assay
- Format: functional
- condition_notes: 168 h
Let's look at some compounds and their measured MIC90.
quantity_name: MIC90 (µg/mL)

compound=CCC(=O)N1CC=C(c2cc3c(cc2F)N2C(=O)O[C@@H](CNC(C)=O)[C@@H]2CO3)CC1 reported_relation== observed_result=6.36
compound=O=C(CO)N1CC=C(c2cc3c(cc2F)N2C(=O)O[C@@H](COc4ccon4)[C@@H]2CO3)CC1 reported_relation=> observed_result=32
compound=CC(=O)NC[C@@H]1OC(=O)N2c3cc(F)c(C4=CCN(C(=O)C5CCCC5)CC4)cc3OC[C@@H]12 reported_relation== observed_result=7.94
compound=CC(=O)NC[C@@H]1OC(=O)N2c3cc(F)c(C4=CCN(C(=O)[C@@H]5CCCN5)CC4)cc3OC[C@@H]12.Cl reported_relation== observed_result=7.12
compound=O=C(CO)N1CC=C(c2cc3c(cc2F)N2C(=O)O[C@@H](CNc4ccon4)[C@@H]2CO3)CC1 reported_relation== observed_result=1.04
compound=CC(=O)NC[C@@H]1OC(=O)N2c3cc(F)c(C4=CCN(C(=O)CO)CC4)cc3OC[C@@H]12 reported_relation== observed_result=0.391
compound=CC(=O)NC[C@@H]1OC(=O)N2c3cc(F)c(C4=CCN(CCO)CC4)cc3OC[C@@H]12 reported_relation== observed_result=0.578
compound="NNC(=O)c1ccncc1 [ISONIAZID]" reported_relation== observed_result=0.037
compound=O=C(NC[C@@H]1OC(=O)N2c3cc(F)c(C4=CCN(C(=O)CO)CC4)cc3OC[C@@H]12)C1CCC1 reported_relation== observed_result=1.68
compound=CC(=O)NC[C@@H]1OC(=O)N2c3ccc(C4=CCN(C(=O)CO)CC4)cc3OC[C@@H]12 reported_relation== observed_result=0.725
compound=CC(=O)NC[C@@H]1OC(=O)N2c3ccc(C4=CCN(CCO)CC4)cc3OC[C@@H]12 reported_relation== observed_result=2.65

Values from ChEMBL document CHEMBL3997852
